- assay_summary: physchem
- test_conditions: buffer, pH 7.4
- Description: Lipophilicity, log Dof the compound at pH 7.4
assay_readout: logD

In [3]: df
Out[3]:
                                 cpd_smiles  test_value
0  C#Cc1ccc2c(c1)-c1nc(C)ncc1Cc1c(C(=O)OCC)ncn1-2        2.68
1   CCOC(=O)c1ncn2c1Cn1ncnc1-c1cc(Cl)ccc1-2        1.83
2  CCOC(=O)c1ncn2c1Cc1cnc(C)nc1-c1cc(Br)ccc1-2        2.68
3             c1ccc2c(c1)-c1ncnn1Cc1cncn1-2        0.73
